# Tested on: P. falciparum NF54
# assayName: In vitro microplate 3H-hypoxanthine incorporation assay against P. falciparum NF54
# Type: cell-based, Plasmodium falciparum
# appliedConditions: Plasmodium falciparum; NF54 strain sensitive to chloroquine and pyrimethamine; erythrocytic stages; average of four determinations; read-out: P. Falciparum NF54 IC50
# Experimental: Compounds were tested for their activities against strains of P. falciparum and T. b. rhodesiense via microplate assays. Their cytotoxicity was determined with rat skeletal myoblasts (L-6 cells). Chloroquine and melarsoprol served as standards (Table 1). In vitro activity against erythrocytic stages of P. falciparum was determined using a ^3H-hypoxanthine incorporation assay, using the drug-sensitive NF54 strain [21] or the chloroquine- and pyrimethamine-resistant K1 strain [22]. […]
Labelling: IC50 reported below 600 nM becomes Criterion met; at or above becomes Criterion not met.

>>> categorylabel("Cc1ccc(C(NCCN2CC3C(c4ccccc4)CC(N4CCCCC4)(CC3c3ccccc3)C2)c2nnnn2C(C)(C)C)cc1 (stereo in doubt) [Compound 13B]")
"Criterion not met"
>>> categorylabel("CC(C)(C)n1nnnc1[C@H](NCCN1CC2C(c3ccccc3)CC(N3CCCCC3)(CC2c2ccccc2)C1)c1ccccc1 (mixture of isomers) [Compound 12A]")
"Criterion met"
>>> categorylabel("Cc1ccc(S(=O)(=O)NCCN2CCC3(N4CCCCC4)C[C@H](c4ccccc4)C2[C@@H](c2ccccc2)C3)cc1 (racemic)")
"Criterion met"
>>> categorylabel("CC(C)(C)C(NCCN1CC2[C@@H](c3ccccc3)CC(N3CCCCC3)(C[C@@H]2c2ccccc2)C1)c1nnnn1C(C)(C)C (mixture of isomers) [Compound 11B]")
"Criterion not met"
>>> categorylabel("CC(C)(C)n1nnnc1CN(CCN1CC2[C@H](c3ccccc3)CC(N3CCCCC3)(C[C@H]2c2ccccc2)C1)Cc1nnnn1C(C)(C)C (racemic)")
"Criterion not met"

Is IC50 strictly under 600 nM for the entry CC(C)(C)n1nnnc1C(NCCN1CC2C(c3ccccc3)CC(N3CCCCC3)(CC2c2ccccc2)C1)c1ccccc1 (racemic) [Compound 12B] ?
Criterion not met

Is IC50 strictly under 600 nM for the entry CC(C)(C)C(NCCN1CC2[C@H](c3ccccc3)CC(N3CCCCC3)(C[C@H]2c2ccccc2)C1)c1nnnn1C(C)(C)C (mixture of isomers) [Compound 11A] ?
Criterion not met

Is IC50 strictly under 600 nM for the entry Cc1ccc(S(=O)(=O)NCCN2CCC3(N4CCCC4)C[C@H](c4ccccc4)C2[C@@H](c2ccccc2)C3)cc1 (racemic) ?
Criterion met

Is IC50 strictly under 600 nM for the entry CC(C)(C)n1nnnc1CNCCN1CC2[C@H](c3ccccc3)CC(N3CCCCC3)(C[C@H]2c2ccccc2)C1 (racemic) ?
Criterion not met

Is IC50 strictly under 600 nM for the entry Cc1ccc([C@@H](NCCN2CC3C(c4ccccc4)CC(N4CCCCC4)(CC3c3ccccc3)C2)c2nnnn2C(C)(C)C)cc1 (mixture of isomers) [Compound 13A] ?
Criterion met
